Data origin, for the record: ChEMBL document CHEMBL1201862

- System: HOP-92
- protocol_details: NCI tumour cell line growth inhibition, 48 h
Active and inactive are the calls of the source. Cut-off read from the data, not from the text of the source: active = GI50 up to about 1.1 µM and inactive = higher.
Please state which outcome applies, choosing from active, inactive

Give the logged outcome of this assay for the following molecule: COc1ccc(N2C(=O)/C(=C\c3cc(OC)c(OC)c(OC)c3)SC2c2ccccc2)cc1 (stereo unspecified) inactive

Give the logged outcome of this assay for the following molecule: COC12C=CC(C=C1C#N)CC2.COC12C=CC(CC1)CC2=O (stereo unspecified) inactive

Give the logged outcome of this assay for the following molecule: `CCOc1ccc(/C=N/[N+](C)(C)C)cc1OCC` inactive

Give the logged outcome of this assay for the following molecule: `Cc1coc2c1C[C@@]1(C)[C@H](CCC[C@@H]1C)[C@H]2O` inactive

Give the logged outcome of this assay for the following molecule: COC(=O)CCC(=O)NC1c2cccc3cccc(c23)Cn2c(=O)n(C)c(=O)n21 (stereo unspecified) inactive

Give the logged outcome of this assay for the following molecule: `Cc1ccc(C(=O)O/N=C2/CCC/C2=C\c2ccccc2)cc1` inactive

Give the logged outcome of this assay for the following molecule: CCC1=CC2CC(C(=O)OC)C1(N(C)C)C2=O (stereo unspecified) inactive

Give the logged outcome of this assay for the following molecule: C[C@]12CC(c3ccccc3O1)C(C(=O)Nc1nc(C34CC5CC(CC(C5)C3)C4)cs1)C(=O)N2 (stereo partly specified) inactive

Give the logged outcome of this assay for the following molecule: NC1=NC(c2ccccc2)CC(c2cc(Cl)ccc2O)=N1 (stereo unspecified) inactive

Give the logged outcome of this assay for the following molecule: `CC(=O)Oc1ccc2c(c1)c1c(=O)oc(C)nc1n2Cc1ccccc1` inactive

Give the logged outcome of this assay for the following molecule: `NC(=O)c1ncn2c1CNC(=O)C2` inactive

Give the logged outcome of this assay for the following molecule: `Clc1cc(OC23CC4CC(CC(C4)C2)C3)nc(Cl)n1` inactive

Give the logged outcome of this assay for the following molecule: `CN(CCCNC(=O)c1c2ccc3ccccc3c2nn1C)CCCNC(=O)c1c2ccc3ccccc3c2nn1C` inactive

Give the logged outcome of this assay for the following molecule: `NC(=O)CSc1nc2ccccc2c(=O)n1N` inactive

Give the logged outcome of this assay for the following molecule: CCCCCCCC(=O)OC(CBr)COC(=O)C(C)(C)C (stereo unspecified) inactive

Give the logged outcome of this assay for the following molecule: `Nc1cc2c3c(cccc3c1)C(=O)N(c1ccc(OCCN3CCCCC3)cc1)C2=O` inactive

Give the logged outcome of this assay for the following molecule: O=[N+]([O-])C[C@@]12O[C@]3(O)C4C5CC(C6C5C3C61)C42 (stereo partly specified) inactive

Give the logged outcome of this assay for the following molecule: `O=c1[nH]n(CCc2ccccc2CCl)c2ccc([N+](=O)[O-])cc12` inactive

Give the logged outcome of this assay for the following molecule: `COc1ccc(-c2nnc3n(C)c4ccccc4n3c2=O)cc1` inactive

Give the logged outcome of this assay for the following molecule: `Cc1ccc2[nH]c3c(C)c4c(c(C)c3c2c1)CN(C)C=C4` active

Give the logged outcome of this assay for the following molecule: `O=C(O)c1nnsc1-c1ccc(-c2snnc2C(=O)O)cc1` inactive

Give the logged outcome of this assay for the following molecule: `COC(=O)c1cnc(Cl)c([N+](=O)[O-])c1` inactive

Give the logged outcome of this assay for the following molecule: `C[n+]1ccccc1/C1=c2\cc/c([nH]2)=C(\c2cccc[n+]2C)C2=N/C(=C(/c3cccc[n+]3C)C3C=CC(N3)/C(c3cccc[n+]3C)=C3/C=CC1=N3)C=C2` inactive

Give the logged outcome of this assay for the following molecule: O=C1NCCS(=O)(=O)N[C@@H](CC2=CC=CCC2)C(=O)N2CCCC12 (stereo partly specified) inactive

Give the logged outcome of this assay for the following molecule: `CCOC(=O)c1c(OCC)[nH]c(=O)c(C(c2cccs2)c2c(O)c(C(=O)OCC)c(OCC)[nH]c2=O)c1O` inactive

Give the logged outcome of this assay for the following molecule: `COc1ccc(C2=C(N)c3cc(OC)ccc3C2=O)cc1` inactive

Give the logged outcome of this assay for the following molecule: OC1(C23CC4CC(CC(C4)C2)C3)CSCC1(O)C12CC3CC(CC(C3)C1)C2 (stereo unspecified) inactive

Give the logged outcome of this assay for the following molecule: `OCCCCn1cc(Cn2ncc3c(NCc4ccccc4)ncnc32)nn1` inactive

Give the logged outcome of this assay for the following molecule: `CC1(C)OC[C@@]2([C@@H]3CC[C@@H](C3)C2(C)C)N1O` inactive

Give the logged outcome of this assay for the following molecule: N#CCCSC(=S)C1CCCC1=N (stereo unspecified) inactive

Give the logged outcome of this assay for the following molecule: `Nc1nccc(Nc2ccc(S(N)(=O)=O)cc2)n1` inactive

Give the logged outcome of this assay for the following molecule: CC(C#N)NCc1ccc(C(C)NC(C)C#N)cc1 (stereo unspecified) inactive

Give the logged outcome of this assay for the following molecule: `CCOC(=O)NC(C(C(=O)OCC)C(=O)OCC)(C(F)(F)F)C(F)(F)F` inactive

Give the logged outcome of this assay for the following molecule: `O=c1[nH]c2ccccc2c(=O)c2cc3ccccc3cc12` inactive

Give the logged outcome of this assay for the following molecule: COC1CC2CCC(C)[C@](O)(O2)C(=O)C(=O)N2CCCCC2C(=O)OC(C(C)CC2CCC(O)C(OC)C2)CC(=O)C(C)C=C(C)C(OC(=O)CN(C)C)C(OC)C(=O)C(C)CC(C)/C=C/C=C/C=C\1C (stereo partly specified) active

Give the logged outcome of this assay for the following molecule: `CCN(CC)c1ccc2nc3ccc(/N=N/c4c(O)ccc5ccccc45)cc3[n+](-c3ccccc3)c2c1` inactive

Give the logged outcome of this assay for the following molecule: Cc1cn(C2CC(n3cc(Cn4ccc(=O)[nH]c4=O)nn3)C(CO)O2)c(=O)[nH]c1=O (stereo unspecified) inactive

Give the logged outcome of this assay for the following molecule: `CCOC(=O)Cn1c(=O)c2nc(SC)sc2n(-c2ccccc2)c1=O` inactive

Give the logged outcome of this assay for the following molecule: C=C1C(=O)O[C@H]2C[C@@H](C)[C@@H]3CC(=O)OC[C@@]3(C)CC12 (stereo partly specified) inactive

Give the logged outcome of this assay for the following molecule: `Cc1ccc(/C=C/C(=N/NC(=O)N/N=C(/C=C/c2ccc(C)cc2)C(C)(C)CN2CCCCC2)C(C)(C)CN2CCCCC2)cc1` inactive

Give the logged outcome of this assay for the following molecule: `Clc1ccc(OCc2nnc(COc3ccc(OCc4nnc(COc5ccc(Cl)cc5Cl)o4)c(Cl)c3)o2)c(Cl)c1` inactive
